species on record: Rattus norvegicus; assay: Activity at uterotonic receptor in rat uterus assessed as uterotonic activity; assay type: tissue-based
*1 amine or outer side, *2 acyl side, *3 side chain or, on linkers, in order; H or OH if unused. Where a SMILES comes first, the peptide text is derived from it. Bridges are numbered along the chain shown (N, C = ends). [ ]: non-standard residue; d: D form. X1 = O=C([C@H](O)CS[*:2])[*:1]; ΔPro = O=C(O)[C@@H]1C=CCN1
assay_endpoint: Activity (U/mg)

The following compounds have reported results that may help.
>>> reading("CC[C@H](C)[C@@H]1NC(=O)[C@H](Cc2ccc(O)cc2)NC(=O)CCSSC[C@H](C(=O)N2CCC[C@H]2C(=O)N[C@@H](CC(C)C)C(=O)NCC(N)=O)NC(=O)[C@H](CC(N)=O)NC(=O)[C@H](CCC(N)=O)NC1=O")
803
>>> reading("CC[C@H](C)[C@@H]1NC(=O)[C@H](Cc2ccc(O)cc2)NC(=O)[C@@H](N)CSSC[C@@H](C(=O)N2CC=C[C@H]2C(=O)N[C@@H](CC(C)C)C(=O)NCC(N)=O)NC(=O)[C@H](CC(N)=O)NC(=O)[C@H](CCC(N)=O)NC1=O")
1070
>>> reading("CC[C@H](C)[C@@H]1NC(=O)[C@H](Cc2ccc(O)cc2)NC(=O)[C@H](O)CSSC[C@@H](C(=O)N2CC=C[C@H]2C(=O)N[C@@H](CC(C)C)C(=O)NCC(N)=O)NC(=O)[C@H](CC(N)=O)NC(=O)[C@H](CCC(N)=O)NC1=O (YIQNC[ΔPro]LG-NH2; linker N-5 via X1)")
880

I = CC[C@H](C)[C@@H]1NC(=O)[C@H](Cc2ccc(O)cc2)NC(=O)CCSSC[C@@H](C(=O)N2CC=C[C@H]2C(=O)N[C@@H](CC(C)C)C(=O)NCC(N)=O)NC(=O)[C@H](CC(N)=O)NC(=O)[C@H](CCC(N)=O)NC1=O
II = CC[C@H](C)[C@@H]1NC(=O)[C@H](Cc2ccc(O)cc2)NC(=O)[C@@H](N)CSSC[C@@H](C(=O)N2CCC[C@H]2C(=O)N[C@@H](CC(C)C)C(=O)NCC(N)=O)NC(=O)[C@H](CC(N)=O)NC(=O)[C@H](CCC(N)=O)NC1=O
Ask | Endpoint returns whichever of I and II has the numerically higher Activity. # reply format: chosen label
Reply | I
(I: 1070 U/mg, II: 546 U/mg)
